# System: Mus musculus
# ASSAY_EXPLANATION: Antidepressant activity was measured by the prevention of tetrabenazine (TBZ) induced ptosis in mice after intraperitoneal administration of the compound.
# Assay type: functional
# SETTINGS: ip
Response field label: string, one of fulfilled (ED50 strictly below 5 mg/kg) or not fulfilled.

[
  {
    "MOL_SMILES": "CCCCOc1ccc([C@@H]2c3ccccc3[C@H]3NCCC[C@@H]23)cc1",
    "QUALITATIVE_LABEL": "fulfilled"
  }
]

// next entry
Hi there! Is ED50 for Cc1ccc([C@H]2c3cc(O)ccc3[C@H]3NCCC[C@@H]23)cc1N below 5 mg/kg, do you know?
not fulfilled
